study.target: urokinase (UK) (Homo sapiens, UniProt P00749)
pKi: −log10 of the molar value. Non-standard residues stand in square brackets, D forms with d. Residues, ends and D or L forms follow the SMILES beside them. Orn = NCCC[C@H](N)C(=O)O
Each entry below carries its reported pKi.

Ask: Please look up its pKi: CC(C)[C@H](NC(=O)[C@H](CO)NC(=O)[C@H](CCCN)NC(=O)[C@H](Cc1ccccc1)NC(=O)[C@@H]1CCCN1)C(=O)N[C@@H](CCC(N)=O)C(N)=O [KIDZ-3, Pro-Phe-Orn-Ser-Val-Gln] (H-PF[Orn]SVQ-NH2)
Result: < 1.70

Ask: Please look up its pKi: CC(C)[C@H](NC(=O)[C@H](CO)NC(=O)[C@H](CCCNC(=N)N)NC(=O)[C@@H](NC(=O)[C@@H]1CCCN1)[C@@H](C)O)C(=O)N[C@@H](CCC(N)=O)C(N)=O [KIDZ-14, Pro-Thr-Arg-Ser-Val-Gln] (H-PTRSVQ-NH2)
Result: < 1.70
